TEST: Solubility and stability of form A in water
Format: physicochemical
EXPERIMENTAL_PARAMETERS: 22 °C, thermodynamic from solid; suspended in water, 22±2° C., 24 hours shaking, resulting pH 10.4, UV-vis; read-out: aqueous solubility (concentration in the liquid phase)
QUANTITY: solubility (mg/mL)
Numeric answer only, unit mg/mL assumed.

Briefly, solubility measured for Cc1nnc(C(=O)NC(C)(C)c2nc(C(=O)NCc3ccc(F)cc3)c(O)c(=O)n2C)o1 [form A] : 47
